measurement.target: human ether-à-go-go-related gene (hERG) potassium channel (human);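 also: peak tail current of the secondary pulse compared with the same well before compound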
Sequence (Q12809 whole entry, looked up): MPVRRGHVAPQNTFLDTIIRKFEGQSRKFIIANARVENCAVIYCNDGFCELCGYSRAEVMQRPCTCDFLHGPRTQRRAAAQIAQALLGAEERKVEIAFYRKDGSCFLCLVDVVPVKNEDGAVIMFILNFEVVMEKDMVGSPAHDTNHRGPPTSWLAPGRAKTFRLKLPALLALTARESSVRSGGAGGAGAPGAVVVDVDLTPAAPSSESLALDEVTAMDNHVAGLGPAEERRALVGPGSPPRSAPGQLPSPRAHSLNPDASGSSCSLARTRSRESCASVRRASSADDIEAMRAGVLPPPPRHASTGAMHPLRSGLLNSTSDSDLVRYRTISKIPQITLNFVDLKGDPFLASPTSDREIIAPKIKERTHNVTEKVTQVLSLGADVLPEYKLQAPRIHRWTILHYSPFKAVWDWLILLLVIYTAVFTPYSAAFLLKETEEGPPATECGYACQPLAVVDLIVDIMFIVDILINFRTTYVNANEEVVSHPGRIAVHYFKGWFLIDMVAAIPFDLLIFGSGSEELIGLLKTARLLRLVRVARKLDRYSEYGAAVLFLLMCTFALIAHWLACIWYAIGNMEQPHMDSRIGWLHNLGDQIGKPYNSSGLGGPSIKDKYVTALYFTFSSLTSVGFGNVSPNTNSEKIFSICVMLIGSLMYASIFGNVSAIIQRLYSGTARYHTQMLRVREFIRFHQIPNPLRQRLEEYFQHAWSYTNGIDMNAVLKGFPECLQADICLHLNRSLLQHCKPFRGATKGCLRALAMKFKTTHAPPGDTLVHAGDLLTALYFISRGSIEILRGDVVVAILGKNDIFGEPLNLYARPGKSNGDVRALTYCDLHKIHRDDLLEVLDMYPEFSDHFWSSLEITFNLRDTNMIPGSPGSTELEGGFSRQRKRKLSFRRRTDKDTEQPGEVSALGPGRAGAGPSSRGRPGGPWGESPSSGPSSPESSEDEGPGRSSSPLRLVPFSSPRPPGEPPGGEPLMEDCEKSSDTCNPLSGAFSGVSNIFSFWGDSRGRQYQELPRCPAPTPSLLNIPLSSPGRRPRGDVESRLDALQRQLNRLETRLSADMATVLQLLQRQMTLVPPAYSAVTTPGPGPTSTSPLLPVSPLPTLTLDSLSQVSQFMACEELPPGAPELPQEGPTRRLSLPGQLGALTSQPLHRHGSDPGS
assay.overview: primary screen, population patch clamp on CHO cells stably expressing hERG; higher = less effect of the substance
The whole screen tested about 310,000 compounds, of which about 14,000 (4.5%) showed an effect of 50% or more. The effect is printed as a negative number. Shown is part of a subset that was picked to be rich in strong results.
measured.metric: hERG current change (%, negative = inhibition) at 10uM (%)

> print(dat)
                                   compound                        measurement.target  experimental.value
1      C=CCNCCCOc1ccc(Cl)cc1Br.O=C(O)C(=O)O  human ether-à-go-go-related gene (hERG) potassium channel (human)               -42.6
2  COCC(=O)N(C)CC1CCCN(CCc2ccccc2OC)C1 (stereo not drawn)  human ether-à-go-go-related gene (hERG) potassium channel (human)                7.26
3  CCN1C(=O)/C(=C2/Sc3ccc(OC)cc3N2C)SC1=Nc1cccc(O)c1  human ether-à-go-go-related gene (hERG) potassium channel (human)                15.6

Value source: paper PMC4336329
